All figures here come from patent US9834558B2.

- Tested on: SIRT1 (Homo sapiens, UniProt Q96EB6)
- Sequence (Q96EB6 whole entry): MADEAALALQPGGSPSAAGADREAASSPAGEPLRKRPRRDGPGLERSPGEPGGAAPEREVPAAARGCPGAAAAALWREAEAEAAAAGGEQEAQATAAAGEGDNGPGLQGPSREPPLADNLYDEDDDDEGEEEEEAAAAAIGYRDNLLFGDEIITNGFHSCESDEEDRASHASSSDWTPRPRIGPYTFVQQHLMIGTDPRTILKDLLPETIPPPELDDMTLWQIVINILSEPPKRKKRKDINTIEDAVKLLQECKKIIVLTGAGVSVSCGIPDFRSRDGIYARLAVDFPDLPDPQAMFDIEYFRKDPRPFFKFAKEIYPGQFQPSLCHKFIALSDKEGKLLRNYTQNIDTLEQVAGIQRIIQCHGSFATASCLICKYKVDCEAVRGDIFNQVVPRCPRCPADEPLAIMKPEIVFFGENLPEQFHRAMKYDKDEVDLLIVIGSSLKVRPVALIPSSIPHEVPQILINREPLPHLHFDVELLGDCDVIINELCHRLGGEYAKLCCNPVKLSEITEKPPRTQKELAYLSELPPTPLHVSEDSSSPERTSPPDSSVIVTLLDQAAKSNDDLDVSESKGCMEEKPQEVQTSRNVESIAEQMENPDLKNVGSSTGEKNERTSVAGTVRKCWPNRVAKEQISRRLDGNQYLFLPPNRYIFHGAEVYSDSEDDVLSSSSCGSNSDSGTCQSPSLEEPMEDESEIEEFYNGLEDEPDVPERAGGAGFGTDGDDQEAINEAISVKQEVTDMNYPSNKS
- Experiment notes: Trp mass spectrometry assay of SIRT1 activation
- Assay type: biochemical
- Conditions: concentration giving 150% activation of SIRT1; Trp peptide substrate
Endpoint label: Tryp AVG EC1.5 (μM)

Illustrative cases are given below, each with its answer.
# Compound, Tryp AVG EC1.5 (μM)
records = [
    ("CC(C)(C)OC(=O)NCCNC(=N)c1ccc(NC(=O)N2c3nc(-c4cccc(C(F)(F)F)c4)ccc3N3CCC[C@H]2C3)cc1 [Example 788]", "A (A (EC1.5<1 μM))"),
    ("CC(=O)NCc1ccc(NC(=O)N2c3nc(-c4cccc(C(F)(F)F)c4)ccc3N3CCC[C@H]2C3)cc1 [Example 790]", "A (A (EC1.5<1 μM))"),
    ("COC(=O)c1cccc(NC(=O)N2c3nc(-c4cccc(C(F)(F)F)c4)ccc3N3CC[C@H]2C3)c1 [Example 626]", "A (A (EC1.5<1 μM))"),
    ("C#Cc1ccc(NC(=O)N2c3nc(-c4cccc(C5(C(F)(F)F)N=N5)c4)ccc3N3CC[C@H]2C3)nc1 [Example 803]", "A (A (EC1.5<1 μM))"),
]

Please supply the value of reported Tryp AVG EC1.5 (μM) for the item O=C(Nc1cccc(OC[C@H](O)CO)n1)N1c2nc(-c3cccc(C(F)(F)F)c3)ccc2N2CC[C@H]1C2 [Example 819]
A (A (EC1.5<1 μM))

Please supply the value of reported Tryp AVG EC1.5 (μM) for the item CC(C)(C)OC(=O)NCc1cccc(-c2ccc3c(n2)N(C(=O)Nc2ccncc2)[C@H]2CCN3C2)c1 [Example 794]
B (B (EC1.5 1-25 μM))

Please supply the value of reported Tryp AVG EC1.5 (μM) for the item NCc1cccc(NC(=O)N2c3nc(-c4cccc(C(F)(F)F)c4)ccc3N3CC[C@H]2C3)c1 [Example 755]
B (B (EC1.5 1-25 μM))

Please supply the value of reported Tryp AVG EC1.5 (μM) for the item NCCCc1cc(NC(=O)N2c3nc(-c4cccc(C(F)(F)F)c4)ccc3N3CCC[C@H]2C3)cc(-c2cnco2)c1 [Example 770]
A (A (EC1.5<1 μM))
